- TEST: NCI Yeast Anticancer Drug Screen. Data for the mlh1 rad18 strain (AID 175)
- CONDITION_DESCRIPTION: S. cerevisiae mlh1 rad18 strain growth inhibition; at 50.0 µM; active compounds read high
Compounds without any hit were thinned out: in the full panel of roughly 79,000, 15% have a hit.
READOUT_LABEL: growth inhibition (%)
Give bare numbers, in %.

Examples with answers:
{"COMPOUND": "Cc1ccc(-c2ccc(C)cc2)cc1", "READOUT_LABEL": "growth inhibition", "REPORTED": -11.1}
{"COMPOUND": "CSc1nnc(SC)s1", "READOUT_LABEL": "growth inhibition", "REPORTED": -9.35}
{"COMPOUND": "O=C(N/N=C/c1cccc(F)c1)c1ccncc1", "READOUT_LABEL": "growth inhibition", "REPORTED": 8.35}
{"COMPOUND": "CCc1nnc2sc(=S)[nH]n12", "READOUT_LABEL": "growth inhibition", "REPORTED": -12.9}
{"COMPOUND": "C1CCC2CC(NC3=NCCO3)CCC2C1 (stereo not drawn)", "READOUT_LABEL": "growth inhibition", "REPORTED": -85.6}

Batch of 3 compounds: report growth inhibition for each.
1. O=C(Nc1ccccc1)OC1CCCC12CC2 (stereo not drawn)
2. O=C(O)CCC(CCC(=O)O)(C(=O)O)C(=O)O
3. O=C(Nc1cccc([N+](=O)[O-])c1)C(=O)C(C(=O)c1ccccc1F)C1OC(=O)C2C=CC=CC21 (stereo not drawn)

A)
23.1
2.9
-19.9

Batch of 6 compounds: report growth inhibition for each.
1. CC(C)N=C(NC#N)NS(=O)(=O)c1cnccc1Nc1ccc(Cl)cc1
2. C/C(=N\N)c1cnc(N)nc1C
3. OC1(CSc2ccccc2)CCCCC1
4. CN(C)CCCN1CCc2c([nH]c3ccccc23)C1c1cccnc1 (stereo not drawn)
5. CC(O)c1cc2c(s1)C(=O)c1sccc1C2=O (stereo not drawn)
6. COc1cc([N+](=O)[O-])c(C=O)c(C(=O)O)c1OC

A)
[24.8, -12.8, -33, -21.1, 91.2, 4.9]

Batch of 8 compounds: report growth inhibition for each.
1. NS(=O)(=O)c1cc2c(cc1Cl)NC(C(=O)NNC(=O)c1ccncc1)=NS2(=O)=O
2. COC(=O)c1ccc(F)cc1
3. Cc1cc(NC(C)C)c(C)cc1NC(C)C
4. CCC(SC)C(=O)c1ccccc1 (stereo not drawn)
5. CCN(CC)CCn1c(=O)c2c(ncn2C)n(C)c1=O
6. Clc1ccc(/C=N/c2ccccn2)cc1
7. CC(C)(C)n1c(=O)n(C(=O)C(Cl)(Cl)Cl)n(C(=O)C(Cl)(Cl)Cl)c1=O
8. CCOC(=O)C1(Cc2ccccc2)Cc2ccccc2C1=O (stereo not drawn)

A)
1: -20.4; 2: -46.3; 3: 43.8; 4: -12.8; 5: -15.6; 6: -31.1; 7: -4.45; 8: 63.5

Batch of 2 compounds: report growth inhibition for each.
1. COc1ccc2c(c1)CN(C)c1ccc(OC)cc1CN2C
2. COc1ccccc1-n1c(NN)nc2ccc(Br)cc2c1=O

A)
24.6
-12.4
